This collection of values is drawn from PubChem BioAssay.

measurementProtocol: small-molecule microarray binders of probe aWnt5a, primary screen, biochemical, biotinylated probe, 635/667 nm fluorescence (AID 1113);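 note: score merges 667 nm fluorescence intensity with signal-to-noise per printed feature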
setupConditions: higher = more signal
recordedMetric: composite z-score
Please reply with the number alone, leaving off any unit.

Illustrative cases are given below, each with its answer.
- compound: "C=CCN1C(=O)[C@@]2(O[C@@H](CCO)[C@H]([Si](C)(C)c3ccc(OC)cc3)[C@H]2C)c2cc(N3C(=O)c4ccccc4Oc4ccccc43)ccc21"
  numericReadout: 0.0181
- compound: "CN(C)CCCCNC(=O)[C@H]1C[C@H]2C(=O)N3CCC[C@H]3C(=O)N2[C@H]1c1ccc(O)cc1"
  numericReadout: -0.45

-- ask Read off the recorded composite z-score for C=CC[C@H](OC(=O)Nc1ccc(OC)cc1)c1ccc(O)c2ccccc12
-- reply 0.0511

-- ask Read off the recorded composite z-score for COc1ccccc1CN1C(=O)c2ccccc2[C@](Cc2ccccc2I)(C(=O)NC(C)C)[C@@H]1c1ccc(CO)cc1
-- reply -0.0455

-- ask Read off the recorded composite z-score for [N-]=[N+]=Nc1ccccc1[C@H]1OC(c2ccc(OCCCO)cc2)=N[C@@]1(CCS(=O)(=O)c1ccccc1)C(=O)N1CCCCC1
-- reply -0.0165

-- ask Read off the recorded composite z-score for [N-]=[N+]=NCc1ccccc1C[C@@]1(C(N)=O)N=C(c2ccc(OCCCO)cc2)O[C@@H]1c1ccccc1CN=[N+]=[N-]
-- reply -0.0236

-- ask Read off the recorded composite z-score for O=C(CS)NCCCCCCNC(=O)[C@@H]1C[C@@H]2C(=O)N3CCC[C@H]3C(=O)N2[C@@H]1c1cccc(OCCO)c1
-- reply 0.206

-- ask Read off the recorded composite z-score for C=CC1c2cc(O)c(OC)cc2CCN1Cc1sc2ccccc2c1Cl (stereo unspecified)
-- reply -0.107

-- ask Read off the recorded composite z-score for C=C(COC)/C(=C/C[C@@H](OC(=O)c1ccncc1)c1ccc(CO)o1)c1cnc2ccccc2c1
-- reply 0.0037

-- ask Read off the recorded composite z-score for CC1CC/C=C\[C@H]2OC34C=CCN(c5ccc6ccccc6c5)C(=O)[C@H]3N(C(CO)C(C)C)C(=O)[C@@H]4C2C(=O)O1 (stereo partly specified)
-- reply -0.169

-- ask Read off the recorded composite z-score for CC(C)N1CC=CC23O[C@@H]4C=CCOC(=O)[C@@H]4[C@H]2C(=O)N(C(C)CO)[C@@H]3C1=O (stereo partly specified)
-- reply -0.196

-- ask Read off the recorded composite z-score for COc1c(C)cc(-c2cc3c(c(Cc4ccccc4)n2)[Si](C(C)C)(C(C)C)OC3)cc1C
-- reply -0.096

-- ask Read off the recorded composite z-score for O=C1O[C@@H](c2ccccc2)[C@@H](c2ccccc2)N2[C@@H](c3ccccc3OCCO)[C@]3(C(=O)Nc4ccc(C#CC5=CCCCC5)cc43)[C@@H](C(=O)NC[C@H](O)c3ccccc3)[C@H]12
-- reply 0.0388

-- ask Read off the recorded composite z-score for Cc1c(NC(=O)/C(C#N)=C/C=C/c2ccc(N(C)C)cc2)c(=O)n(-c2ccccc2)n1C
-- reply 0.19

-- ask Read off the recorded composite z-score for CCOC(=O)C1=CC[C@@H](c2ccccc2C(F)(F)F)N(S(=O)(=O)c2ccc(C)cc2)C1
-- reply 0.274

-- ask Read off the recorded composite z-score for CN(C)C(=O)[C@@]1(Cc2ccccc2N=[N+]=[N-])COC(c2ccc(OCCCO)cc2)=N1
-- reply 0.212

====

Tested on: Sonic hedgehog protein (Shh)
measurementProtocol: small-molecule binders of Shh protein, primary screen, biochemical, small-molecule microarray, 635/667 nm fluorescence (AID 1151);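 note: Shh protein binding to compounds spotted on small-molecule microarray slides; score combines spot fluorescence intensity with signal-to-noise across triplicate slides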
setupConditions: small-molecule microarray binding, 635 nm fluorescence; higher = more signal
recordedMetric: composite z-score

- molecule: "COc1ccc([Si](C)(C)[C@H]2[C@H](CCO)O[C@@]3(C(=O)N(Cc4cccc(N5CCCCC5=O)c4)c4ccccc43)[C@@H]2C)cc1"
  result: 1.5
- molecule: "C=CC[C@H](OC(=O)Nc1ccc(OC)cc1)c1ccc(O)c2ccccc12"
  result: 1.66
- molecule: "C=C(CCCC)C(=O)CC[C@@H](OC(=O)c1ccccc1-c1ccccc1C(=O)O)c1cccc(OCCO)c1"
  result: 1.68
- molecule: "C=CCOC(=O)[C@@H]1[C@H]2C(=O)O[C@H](c3ccccc3)[C@H](c3ccccc3)N2[C@H](c2ccc(OCCOC(=O)[C@H]3C[C@H]4C(=O)N[C@@H](CCCCNC(C)=O)C(=O)N4[C@H]3c3cccc(OCCO)c3)cc2)[C@@]12C(=O)Nc1ccc(I)cc12"
  result: 1.89
- molecule: "C[C@H]1C2=C3C(CC[C@H]4C(OCc5ccc(F)cc5C(F)(F)F)OC[C@](C)([C@@H]34)N(C(=O)OC(C)(C)C)C2)C(CO)C1CO (some centres not stated)"
  result: -1.38
- molecule: "[N-]=[N+]=NCc1ccccc1C[C@]1(C(=O)NCC(O)CO)N=C(c2ccc(OCCCO)cc2)O[C@H]1c1ccccc1CN=[N+]=[N-] (some centres not stated)"
  result: -0.881

Then there is this molecule:
-- ask Read off the recorded composite z-score for CC(C)C(=C=CC[C@H](O)c1ccc(OCCO)cc1)C[C@H](O)c1cc(Cl)cc(Cl)c1O
-- reply 1.71

====

studySystem: Torsin-1A-interacting protein 2 (Homo sapiens) (UniProt Q8NFQ8)
Sequence (Q8NFQ8 whole entry, looked up): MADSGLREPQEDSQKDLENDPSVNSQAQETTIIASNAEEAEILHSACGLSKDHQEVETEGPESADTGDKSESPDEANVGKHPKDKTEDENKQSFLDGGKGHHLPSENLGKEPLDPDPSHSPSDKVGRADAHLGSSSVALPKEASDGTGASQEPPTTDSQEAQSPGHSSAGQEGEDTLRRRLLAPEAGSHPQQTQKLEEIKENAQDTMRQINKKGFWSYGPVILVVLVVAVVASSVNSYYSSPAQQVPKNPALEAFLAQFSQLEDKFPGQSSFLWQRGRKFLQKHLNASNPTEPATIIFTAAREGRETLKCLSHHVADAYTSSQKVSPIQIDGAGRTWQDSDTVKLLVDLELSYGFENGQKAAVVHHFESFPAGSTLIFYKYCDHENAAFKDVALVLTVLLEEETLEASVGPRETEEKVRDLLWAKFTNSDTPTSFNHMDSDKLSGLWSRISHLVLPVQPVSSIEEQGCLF
measurementProtocol: LULL1 binders on small-molecule microarray, primary screen, cell lysate, human LULL1 lysate, 635/667 nm fluorescence (AID 1092);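 note: probe is lysate of COS7 cells overexpressing human LULL1; score merges per-feature 667 nm fluorescence with signal-to-noise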
setupConditions: hLULL1 lysate binding, 635 nm fluorescence, higher = more signal
recordedMetric: composite z-score
Please reply with the number alone, leaving off any unit.

Illustrative cases are given below, each with its answer.
- compound: "CCOC(=O)C[C@H]1[C@H](OC(=O)c2ccc(-c3ccccc3)cc2)[C@@H](NC(=O)C2CCCCC2)c2cc(OCCCO)ccc2N1C(=O)c1ccccc1"
  studySystem: "Torsin-1A-interacting protein 2 (Homo sapiens) (UniProt Q8NFQ8)"
  composite z-score: 1.44
- compound: "O=C1OC[C@@H](c2ccccc2)N2CC(/C=C/c3ccccc3)=CC12 (some centres undefined)"
  studySystem: "Torsin-1A-interacting protein 2 (Homo sapiens) (UniProt Q8NFQ8)"
  composite z-score: -0.79
- compound: "CCCC[C@@H]1C[C@H]1[C@@H](NC(=O)c1ccccc1)c1ccc(Cl)cc1"
  studySystem: "Torsin-1A-interacting protein 2 (Homo sapiens) (UniProt Q8NFQ8)"
  composite z-score: 0.0826

-- ask Read off the recorded composite z-score for COCCCNC(=O)[C@@]1(Sc2ccc(C)cc2)CC(=O)N(Cc2cc(C(F)(F)F)cc(C(F)(F)F)c2)[C@@H]1c1ccc(CO)cc1
-- reply 1.46

====

# maps each entry to its composite z-score
studySystem: Calmodulin-1 (Homo sapiens)
measurementProtocol: calcium-bound CALM1 binders on microarrays, profiling panel, artefact control for SMM control-protein annotation, biochemical, small-molecule microarray, Cy5-labelled CALM1, plus calcium (AID 1112);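 note: score merges spot fluorescence with signal to noise from triplicate slides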
setupConditions: Cy5-CALM1 binding fluorescence, higher = more signal
Please reply with the number alone, leaving off any unit.

- compound: "COC(=O)[C@@]1(Cc2ccc(OC)cc2)[C@H]2c3cc(C(=O)N(C)C)n(Cc4nc5ccccc5[nH]4)c3C[C@H]2CN1C(=O)c1ccccc1"
  composite z-score: 1.06

Then there is this compound:
-- ask Read off the recorded composite z-score for CC(C)C[C@@H]1NC(=O)[C@H]2C[C@@H](C(=O)NCCCCCC[N+](C)(C)C)[C@@H](c3cccc(OCCO)c3)N2C1=O
-- reply -0.738

====

measurementProtocol: inhibitors of hydroxyurea-induced Chk1 phosphorylation, primary screen, imaging, HeLa, phospho-Chk1 antibody, percent positive cells (AID 1186)
setupConditions: hydroxyurea-induced phospho-Chk1 immunofluorescence imaging, higher = more signal
Quick rule for you: z-score at -0.3 or higher means 1 (yes), lower means 0 (no).

A selection of reference data follows.
- molecule: "COc1ccc(C(O)C2C=CC3C(=O)N(c4ccccc4)C(=O)C3N2Nc2ccccc2)cc1OCc1ccccc1 (configuration not stated)"
  className: "1 (yes)"
- molecule: "CCOc1cc(C(O)C2C=CC3C(=O)N(C)C(=O)C3N2N2CCCCC2)ccc1O (configuration not stated)"
  className: "0 (no)"
- molecule: "C=C(CCCC)/C(=C/C[C@@H](OC(=O)c1ccncc1)c1cccc(OCCO)c1)c1cnc2ccccc2c1"
  className: "0 (no)"
- molecule: "COC(=O)C[C@H]1O[C@]2(C(=O)N(C)c3ccccc32)[C@@H](C)[C@@H]1[Si](C)(C)c1ccc(C)cc1"
  className: "1 (yes)"
- molecule: "CCCCN1CC=CC23O[C@@H]4/C=C\\CCC(C)OC(=O)C4[C@H]2C(=O)N(CCCCCCO)[C@@H]3C1=O (some centres not stated)"
  className: "0 (no)"
- molecule: "O=C1C[C@@](C(=O)NCC(F)(F)F)(c2ccc([N+](=O)[O-])cc2)[C@@H](c2ccc(CO)cc2)N1C1CCCCC1"
  className: "1 (yes)"
- molecule: "COc1cc(CO)cc(I)c1O[C@H]1C=C(C(=O)NCCO)C[C@@H](N(Cc2ccc(F)cc2)C(=O)C2CCCO2)[C@@H]1O (some centres not stated)"
  className: "1 (yes)"
- molecule: "COc1ccc(NN2C(C(O)c3ccco3)C=CC3C(=O)N(C4CCCCC4)C(=O)C32)cc1 (configuration not stated)"
  className: "1 (yes)"
- molecule: "C=C(CCCC)C(=O)CC[C@@H](OC(=O)c1ccccc1-c1ccccc1C(=O)O)c1cccc(OCCO)c1"
  className: "1 (yes)"
- molecule: "COc1ccc([Si](C)(C)[C@@H]2[C@@H](CCO)O[C@]3(C(=O)N(Cc4cccc(N5C(=O)c6ccccc6Oc6ccccc65)c4)c4ccccc43)[C@H]2C)cc1"
  className: "0 (no)"

-- ask Could you verify whether the entry CC[C@H]1C2=C3C(CC[C@H]4C(OCc5ccc(F)cc5C(F)(F)F)OC[C@](C)([C@@H]34)N(C(=O)OC(C)(C)C)C2)C2COC(=O)OCC21 (some centres not stated) shows z-score of no less than -0.3?
-- reply 1 (yes)

-- ask Could you verify whether the entry O=C1O[C@@H](c2ccccc2)[C@@H](c2ccccc2)N2[C@@H](c3ccc(O)cc3)[C@]3(C(=O)Nc4ccc(C#CC5=CCCCC5)cc43)[C@@H](C(=O)N3CCN(c4ncccn4)CC3)[C@H]12 shows z-score of no less than -0.3?
-- reply 1 (yes)

-- ask Could you verify whether the entry COCCOC(=O)N1C(=O)[C@@]2(c3cc(C#CC4=CCCCC4)ccc31)[C@H](C(=O)N1CCN(c3ncccn3)CC1)[C@H]1C(=O)O[C@H](c3ccccc3)[C@H](c3ccccc3)N1[C@@H]2c1ccc(O)cc1 shows z-score of no less than -0.3?
-- reply 1 (yes)

-- ask Could you verify whether the entry CC(C)C(CO)N1C(=O)[C@]2(C)C3C(=O)OCCC/C=C\[C@H]3OC23C=CCN(c2ccc(Cl)cc2)C(=O)[C@@H]13 (some centres not stated) shows z-score of no less than -0.3?
-- reply 1 (yes)

-- ask Could you verify whether the entry CC=CC(O)C1C=CC2C(=O)N(C)C(=O)C2N1Nc1ccc([N+](=O)[O-])cc1[N+](=O)[O-] (configuration not stated) shows z-score of no less than -0.3?
-- reply 1 (yes)

-- ask Could you verify whether the entry O=C1O[C@@H](c2ccccc2)[C@@H](c2ccccc2)N2[C@@H](c3ccccc3OCCO)[C@]3(C(=O)Nc4ccccc43)[C@@H](C(=O)NC[C@H](O)c3ccccc3)[C@H]12 shows z-score of no less than -0.3?
-- reply 1 (yes)

-- ask Could you verify whether the entry COC(=O)[C@@]1(Cc2ccc(F)cc2)[C@H]2c3cc(C(=O)N4CCCC4)n(CCF)c3C[C@H]2CN1C(=O)c1ccccc1 shows z-score of no less than -0.3?
-- reply 0 (no)

-- ask Could you verify whether the entry CC(C)C(=C=CC[C@H](O)c1ccc(OCCO)cc1)C[C@H](O)c1cc(Cl)cc(Cl)c1O shows z-score of no less than -0.3?
-- reply 1 (yes)

-- ask Could you verify whether the entry CC(C)(C)OC(=O)CC[C@]1(C(=O)O)N=C(c2ccc(OCCCO)cc2)O[C@H]1c1ccccc1CN=[N+]=[N-] shows z-score of no less than -0.3?
-- reply 1 (yes)
